# method.description: Cytotoxicity against cat CRFK cells assessed as reduction in cell viability after 5 days by MTT assay
# Type: cell-based, Felis catus
# experimental.context: read-out: ID50
measure.name: CC50 at 120 h (µM)

Nc1ccn([C@H]2CC[C@@H](CO)O2)c(=O)n1 [ZALCITABINE]	1990
Cc1cn([C@H]2C[C@H](N=[N+]=[N-])[C@@H](CO)O2)c(=O)[nH]c1=O [ZIDOVUDINE]	1520
